These data points were gathered from ChEMBL document CHEMBL5150068.

Tested on: Human immunodeficiency virus 1
PROCEDURE DETAILS: Antiviral activity against HIV-1 KIZ001 clinical isolate infected in human PBMC measured after 48 hrs incubation by luciferase based analysis
Format: functional, organism-based
MEASUREMENT PARAMETERS: Human immunodeficiency virus 1, KIZ001, PBMC
pEC50: −log10 of the molar value.
MEASUREMENT LABEL: pEC50

CC(=O)N1CCc2c(nc(C)n2[C@@H]2C[C@H]3CC[C@@H](C2)N3CC[C@H](NC(=O)C2CCC(F)(F)CC2)c2ccsc2)C1    8.28
Cc1nnc(C(C)C)n1[C@H]1C[C@H]2CC[C@@H](C1)N2CC[C@H](NC(=O)C1CCC(F)(F)CC1)c1ccccc1    7.83
Cc1nc2c(n1[C@@H]1C[C@H]3CC[C@@H](C1)N3CC[C@H](NC(=O)C1CCC(F)(F)CC1)c1ccsc1)CCN(C(=O)C(C)C)C2    8.11

---

PROCEDURE DETAILS: Cytotoxicity against human PBMC cells incubated for 48 hrs by MTT assay
Format: toxicity, cell-based
Reported CC50 at 48 h values follow for various compounds
MEASUREMENT LABEL: CC50 at 48 h (µM)

Cc1nc2c(n1[C@@H]1C[C@H]3CC[C@@H](C1)N3CC[C@H](NC(=O)C1CCC(F)(F)CC1)c1ccsc1)CCN(C(=O)C(C)C)C2    81.7
CC(=O)N1CCc2c(nc(C)n2[C@@H]2C[C@H]3CC[C@@H](C2)N3CC[C@H](NC(=O)C2CCC(F)(F)CC2)c2ccsc2)C1    103

---

PROCEDURE DETAILS: Half life in Sprague-Dawley rat at 10 mg/kg, po measured upto 24 hrs
Assay type: ADME, organism-based
MEASUREMENT PARAMETERS: in vivo
MEASUREMENT LABEL: half-life (h)

CC(=O)N1CCc2c(nc(C)n2[C@@H]2C[C@H]3CC[C@@H](C2)N3CC[C@H](NC(=O)C2CCC(F)(F)CC2)c2ccsc2)C1    6.44
Cc1nc2c(n1[C@@H]1C[C@H]3CC[C@@H](C1)N3CC[C@H](NC(=O)C1CCC(F)(F)CC1)c1ccsc1)CCN(C(=O)C(C)C)C2    10.3

---

PROCEDURE DETAILS: Cmax in Sprague-Dawley rat at 10 mg/kg, po measured upto 24 hrs
Type: ADME, organism-based
Set-up: time < 24 hrs, dose 10 mg/kg, route po
MEASUREMENT PARAMETERS: in vivo
Reported Cmax values follow for various compounds
MEASUREMENT LABEL: Cmax

Cc1nc2c(n1[C@@H]1C[C@H]3CC[C@@H](C1)N3CC[C@H](NC(=O)C1CCC(F)(F)CC1)c1ccsc1)CCN(C(=O)C(C)C)C2    49.5 ng/mL
CC(=O)N1CCc2c(nc(C)n2[C@@H]2C[C@H]3CC[C@@H](C2)N3CC[C@H](NC(=O)C2CCC(F)(F)CC2)c2ccsc2)C1    66.4 ng/mL
Cc1nnc(C(C)C)n1[C@@H]1C[C@H]2CC[C@@H](C1)N2CC[C@H](NC(=O)C1CCC(F)(F)CC1)c1ccccc1    5.5 ng/mL

---

Test system: Human immunodeficiency virus 1
PROCEDURE DETAILS: Antiviral activity against HIV-1 KIZ006 clinical isolate infected in human PBMC measured after 48 hrs incubation by luciferase based analysis
Assay type: functional, organism-based
MEASUREMENT PARAMETERS: Human immunodeficiency virus 1, KIZ006, PBMC
pEC50: −log10 of the molar value.
MEASUREMENT LABEL: pEC50

Cc1nnc(C(C)C)n1[C@H]1C[C@H]2CC[C@@H](C1)N2CC[C@H](NC(=O)C1CCC(F)(F)CC1)c1ccccc1 [MARAVIROC]    7.04
CC(=O)N1CCc2c(nc(C)n2[C@@H]2C[C@H]3CC[C@@H](C2)N3CC[C@H](NC(=O)C2CCC(F)(F)CC2)c2ccsc2)C1    7.72
Cc1nc2c(n1[C@@H]1C[C@H]3CC[C@@H](C1)N3CC[C@H](NC(=O)C1CCC(F)(F)CC1)c1ccsc1)CCN(C(=O)C(C)C)C2    7.90
